Origin of measurements: patent US20200377958A1

- experimental details: Phase 1b clinical study (NCT01814826): plasma PK of PEV in combination with AZA
- Format: in vivo, human
- assay context: human, plasma, intravenous, plasma; dose escalation, 20 mg/m^2 cohort (N = 6); cycle 1, day 1; mean

molecule: NS(=O)(=O)OC[C@@H]1C[C@@H](n2ccc3c(N[C@H]4CCc5ccccc54)ncnc32)C[C@@H]1O [PEV]
measure unit: h
half-life: 7.8

----------
- experimental details: Phase 1b clinical study (NCT01814826): plasma PK of PEV in combination with AZA
- Format: in vivo, human
- assay context: human, plasma, iv, plasma; MTD expansion, IV AZA cohort (N = 26); cycle 1, day 5; mean
readout kind: half-life (h)

smiles text: NS(=O)(=O)OC[C@@H]1C[C@@H](n2ccc3c(N[C@H]4CCc5ccccc54)ncnc32)C[C@@H]1O
measure unit: h
numeric result: 8.07
